The reported numbers originate from ChEMBL document CHEMBL5528076.

- Experimental target: Serine/threonine-protein kinase 4 (Homo sapiens, UniProt Q13043)
- Sequence (Q13043 whole entry): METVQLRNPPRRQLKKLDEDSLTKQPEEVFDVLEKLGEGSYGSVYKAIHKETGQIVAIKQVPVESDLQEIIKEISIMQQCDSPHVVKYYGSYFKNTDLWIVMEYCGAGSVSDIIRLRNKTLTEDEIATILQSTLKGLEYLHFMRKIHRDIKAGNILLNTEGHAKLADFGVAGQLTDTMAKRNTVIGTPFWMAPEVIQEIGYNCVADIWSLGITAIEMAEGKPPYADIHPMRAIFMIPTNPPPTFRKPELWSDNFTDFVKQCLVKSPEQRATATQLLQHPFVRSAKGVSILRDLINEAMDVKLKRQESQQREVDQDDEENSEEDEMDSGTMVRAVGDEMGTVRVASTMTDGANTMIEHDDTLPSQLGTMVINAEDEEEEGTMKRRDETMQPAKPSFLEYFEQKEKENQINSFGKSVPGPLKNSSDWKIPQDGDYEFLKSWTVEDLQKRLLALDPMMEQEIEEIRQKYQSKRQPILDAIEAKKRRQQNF
- Assay: Inhibition of MST1 (unknown origin) expressed in HEK293T cells using NanoGlo as substrate incubated for 20 hrs by NanoBRET assay
pEC50: −log10 of the molar value.
Each entry below carries its reported pEC50.
Metric name: pEC50

smiles_representation=Cc1cccc(-c2ccc(-c3cc4cnc(Nc5ccc(CCCO)cc5)nc4n(CCCCN)c3=O)c(Cl)c2)n1 experimental_target="Serine/threonine-protein kinase 4 (Homo sapiens, UniProt Q13043)" metric_name=pEC50 meas_value=6.60
smiles_representation=CNc1ncc2cc(-c3ccc(-c4cccc(C)n4)cc3Cl)c(=O)n(CCOC)c2n1 experimental_target="Serine/threonine-protein kinase 4 (Homo sapiens, UniProt Q13043)" metric_name=pEC50 meas_value=4.50
smiles_representation=CNc1ncc2cc(-c3ccc(-c4cccc(C)n4)cc3Cl)c(=O)n(CCCCOC)c2n1 experimental_target="Serine/threonine-protein kinase 4 (Homo sapiens, UniProt Q13043)" metric_name=pEC50 meas_value=5.28
smiles_representation=CNc1ncc2cc(-c3ccc(-c4cccc(C)n4)cc3Cl)c(=O)n(CCCN)c2n1 experimental_target="Serine/threonine-protein kinase 4 (Homo sapiens, UniProt Q13043)" metric_name=pEC50 meas_value=4.58
smiles_representation=COc1cc(N2CCOCC2)ccc1Nc1ncc2cc(-c3ccc(-c4cccc(C)n4)cc3Cl)c(=O)n(CCCCN)c2n1 experimental_target="Serine/threonine-protein kinase 4 (Homo sapiens, UniProt Q13043)" metric_name=pEC50 meas_value=5.68
smiles_representation=CNc1ncc2cc(-c3ccc(-c4cccc(C)n4)cc3Cl)c(=O)n(C[C@H]3CC[C@H](N)CC3)c2n1 experimental_target="Serine/threonine-protein kinase 4 (Homo sapiens, UniProt Q13043)" metric_name=pEC50 meas_value=6.18
smiles_representation=Cc1cccc(-c2ccc(-c3cc4cnc(NCCCc5ccc(N)cc5)nc4n(CCCCN)c3=O)c(Cl)c2)n1 experimental_target="Serine/threonine-protein kinase 4 (Homo sapiens, UniProt Q13043)" metric_name=pEC50 meas_value=5.47
smiles_representation=CNc1ncc2cc(-c3ccc(-c4cccc(C)n4)cc3Cl)c(=O)n(CCCCCN)c2n1 experimental_target="Serine/threonine-protein kinase 4 (Homo sapiens, UniProt Q13043)" metric_name=pEC50 meas_value=5.60
smiles_representation=Cc1cccc(-c2ccc(-c3cc4cnc(Nc5ccc(O)cc5)nc4n(CCCCN)c3=O)c(Cl)c2)n1 experimental_target="Serine/threonine-protein kinase 4 (Homo sapiens, UniProt Q13043)" metric_name=pEC50 meas_value=6.38
